The measurements presented in this section are drawn from patent US20260234107A1.

# Measured Target: 5-HT2B (Homo sapiens, UniProt P41595)
# Construct: host or cells: HEK293
# Sequence (P41595 whole entry, species assumed): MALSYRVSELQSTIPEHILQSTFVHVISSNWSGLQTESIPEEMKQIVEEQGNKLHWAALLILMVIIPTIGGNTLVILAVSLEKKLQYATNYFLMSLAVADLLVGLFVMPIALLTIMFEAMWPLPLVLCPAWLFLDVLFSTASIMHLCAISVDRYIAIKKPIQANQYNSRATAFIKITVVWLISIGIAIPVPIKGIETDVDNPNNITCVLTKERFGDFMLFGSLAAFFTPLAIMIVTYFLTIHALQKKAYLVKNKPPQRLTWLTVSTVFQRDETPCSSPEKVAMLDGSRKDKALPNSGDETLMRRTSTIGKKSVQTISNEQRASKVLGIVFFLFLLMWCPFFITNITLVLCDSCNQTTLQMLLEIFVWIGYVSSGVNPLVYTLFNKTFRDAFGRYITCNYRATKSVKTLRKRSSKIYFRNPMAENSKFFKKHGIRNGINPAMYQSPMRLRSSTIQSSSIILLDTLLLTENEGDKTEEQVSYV
# Measurement Protocol: FLIPR Ca2+ flux agonist assay at 5-HT2B
# Format: cell-based
Listing of recorded pEC50 by entry.
Expect pEC50 as a plain number equal to -log10 of the molar concentration.

Some compounds with recorded pEC50:
C#CCNCCc1c[nH]c2cccc(O)c12 ... 7.05
CCNCCc1c[nH]c2ccc(Cl)c(O)c12 ... 7.37

Prompt: Item NCCc1c[nH]c2cc(F)cc(O)c12 has what recorded pEC50?
Response: 8.29

====

Listing of recorded 5-HT2A % Act @ Max Dose by entry.
# Measured Target: 5-HT2A (Homo sapiens)
# Sequence (P28223 whole entry): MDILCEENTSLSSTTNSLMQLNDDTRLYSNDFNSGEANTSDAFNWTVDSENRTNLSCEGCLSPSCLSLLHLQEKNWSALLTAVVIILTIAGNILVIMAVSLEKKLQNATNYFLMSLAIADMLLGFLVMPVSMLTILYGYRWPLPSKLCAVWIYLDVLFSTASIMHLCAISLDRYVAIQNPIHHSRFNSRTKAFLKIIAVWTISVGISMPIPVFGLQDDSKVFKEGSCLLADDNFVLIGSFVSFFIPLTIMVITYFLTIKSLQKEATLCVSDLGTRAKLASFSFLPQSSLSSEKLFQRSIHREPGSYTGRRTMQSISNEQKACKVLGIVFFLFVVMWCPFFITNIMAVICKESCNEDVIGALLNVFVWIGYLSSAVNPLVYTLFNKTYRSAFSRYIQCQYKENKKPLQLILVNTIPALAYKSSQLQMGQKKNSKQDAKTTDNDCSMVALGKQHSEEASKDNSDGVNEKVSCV
# Measurement Protocol: FLIPR Ca2+ flux agonist assay at 5-HT2A
# Format: cell-based
# Parameters: host or cells: HEK293
# Assay Context: Ca2+ flux, HEK293, max dose
# Method: A solution of 250 mM probenecid in 1 mL FLIPR assay buffer was prepared fresh. This was combined with a fluorescent dye (Fluo-4 Direct™) to make a final assay concentration of 2.5 mM. […] The fluorescent dye was then added to the assay plate along with assay buffer to a final volume of 40 μL. […] 10 μL of references and compounds were then transferred from the compound plate into the cell plate and the fluorescent signal was read.
Answer by giving the amount and then stating its unit.

Some compounds with recorded 5-HT2A % Act @ Max Dose:
NCCc1c[nH]c2cccc(O)c12 ... 99.2%
C#CCNCCc1c[nH]c2cccc(O)c12 ... 96.07%
CC(C)n1cc(CCN(C)C)c2c(O)cc(F)cc21 ... 1.28%

Query compound follows.
Prompt: Item CC(C)NCCc1c[nH]c2ccc(F)c(O)c12 has what recorded 5-HT2A % Act @ Max Dose?
Response: 94.57%

====

# Measurement Protocol: Stability in mouse brain homogenate
# Format: in vitro ADME, male CD-1 mice
# Assay Context: male, CD-1; mouse brain homogenate, 1 μM, 37° C.
Label rule, in plain words: half-life at 1 µM of 60 min and up is met, under 60 min is not met.

Illustrative cases are given below, each with its answer.
CCNCCc1c[nH]c2ccc(Cl)c(O)c12 ... not met
Oc1cccc2[nH]cc(CCNC3CC3)c12 ... not met
CC(C)NCCc1c[nH]c2ccc(F)c(O)c12 ... met
C#CCNCCc1c[nH]c2cccc(O)c12 ... met

Prompt: Does NCCc1c[nH]c2ccc(F)c(O)c12 have a reported half-life at 1 µM of at least 60 min?
Response: not met

====

# Measured Target: 5-HT2B (Homo sapiens, UniProt P41595)
# Construct: host or cells: HEK293
# Measurement Protocol: FLIPR Ca2+ flux agonist assay at 5-HT2B
# Format: cell-based
# Assay Context: Ca2+ flux, HEK293, max dose
Listing of recorded 5-HT2B % Act @ Max Dose by entry.
A number alone suffices; assume %.

CCNCCc1c[nH]c2ccc(C)c(O)c12 [Compound 37] ... 16.28

Prompt: Item NCCc1c[nH]c2c(F)ccc(O)c12 [Compound 32, 3-(2-aminoethyl)-7-fluoro-1H-indol-4-ol] has what recorded 5-HT2B % Act @ Max Dose?
Response: 66.55

Prompt: Item CNCCc1c[nH]c2c(F)ccc(O)c12 [Compound 34] has what recorded 5-HT2B % Act @ Max Dose?
Response: 8.09

Prompt: Item CNCCc1c[nH]c2ccc(F)c(O)c12 [Compound 26] has what recorded 5-HT2B % Act @ Max Dose?
Response: 13.87

Prompt: Item CCCNCCc1c[nH]c2ccc(F)c(O)c12 [Compound 36] has what recorded 5-HT2B % Act @ Max Dose?
Response: 44.90

Prompt: Item CCCN(CC)CCc1c[nH]c2ccccc12 [EPT, N-ethyl-N-propyltryptamine, reference compound] has what recorded 5-HT2B % Act @ Max Dose?
Response: 80.4

Prompt: Item C#CCNCCc1c[nH]c2cccc(O)c12 [Compound 24] has what recorded 5-HT2B % Act @ Max Dose?
Response: 48.26

Prompt: Item COc1ccc2[nH]cc(CCN(C)C)c2c1 [Compound 5-MeO-DMT, reference compound] has what recorded 5-HT2B % Act @ Max Dose?
Response: 20.5

Prompt: Item NCCc1c[nH]c2cccc(O)c12 [Compound 1, 3-(2-aminoethyl)-1H-indol-4-ol] has what recorded 5-HT2B % Act @ Max Dose?
Response: 83.98

Prompt: Item NCCc1c[nH]c2ccc(F)c(O)c12 [Compound 30, 3-(2-aminoethyl)-5-fluoro-1H-indol-4-ol] has what recorded 5-HT2B % Act @ Max Dose?
Response: 95.46

Prompt: Item Oc1c(F)ccc2[nH]cc(CCNC3CC3)c12 [Compound 27] has what recorded 5-HT2B % Act @ Max Dose?
Response: 36.08

Prompt: Item CCNCCc1c[nH]c2cc(F)cc(O)c12 [Compound 29] has what recorded 5-HT2B % Act @ Max Dose?
Response: 12.18

Prompt: Item CC(C)NCCc1c[nH]c2ccc(F)c(O)c12 [Compound 35] has what recorded 5-HT2B % Act @ Max Dose?
Response: 27.19

Prompt: Item CNCCc1c[nH]c2cc(C)cc(O)c12 [Compound 39] has what recorded 5-HT2B % Act @ Max Dose?
Response: 10.04

Prompt: Item Oc1cccc2[nH]cc(CCNC3CC3)c12 [Compound 4] has what recorded 5-HT2B % Act @ Max Dose?
Response: 4.08
